Data provenance: the supplement of paper PMC9112550

// shrunken log2 fold change lookup, one value per entry
- Tested on: Escherichia coli TOP10
- assayDetails: shrunken log2 fold change of peptide-encoding DNA abundance (4.5 h post-induction vs induction); higher = less antimicrobial activity (less host growth inhibition)
- conditionSummary: time post-induction: 4.5 h; library: site-saturation at positions 5, 18, 19, 20
Answer with a number only.

Please review the entries below; each comes with its answer.
[ask] Tell me the measured shrunken log2 fold change of RRIRIRPPRLPRPRPRPVRRPRP , please.
[reply] 0.377

[ask] Next sequence: RRIRDRPPRLPRPRPRPMWIPRP
[reply] -0.306

Continuing:
[ask] Tell me the measured shrunken log2 fold change of RRIRNRPPRLPRPRPRPLHGPRP , please.
[reply] -0.0305

[ask] Next sequence: RRIRARPPRLPRPRPRPQREPRP
[reply] 0.869

[ask] Next sequence: RRIRGRPPRLPRPRPRPRASPRP
[reply] 1.05

[ask] Next sequence: RRIRHRPPRLPRPRPRPMAFPRP
[reply] 0.166

[ask] Next sequence: RRIRWRPPRLPRPRPRPDMCPRP
[reply] 0.262

[ask] Next sequence: RRIRNRPPRLPRPRPRPSPPPRP
[reply] -0.0562

[ask] Next sequence: RRIRERPPRLPRPRPRPSMTPRP
[reply] 0.0627

[ask] Next sequence: RRIRARPPRLPRPRPRPSWPPRP
[reply] 0.164

[ask] Next sequence: RRIRFRPPRLPRPRPRPAVHPRP
[reply] -0.0819

[ask] Next sequence: RRIRHRPPRLPRPRPRPHWRPRP
[reply] 0.125

[ask] Next sequence: RRIRERPPRLPRPRPRPDAIPRP
[reply] -0.166

[ask] Next sequence: RRIRTRPPRLPRPRPRPQKRPRP
[reply] 0.206

* * *

- System: Escherichia coli TOP10
- assayDetails: shrunken log2 fold change of peptide-encoding DNA abundance (4.5 h post-induction vs induction); higher = less antimicrobial activity (less host growth inhibition)
- conditionSummary: time post-induction: 4.5 h; library: site-saturation at positions 5, 18, 19, 20
parameterMeasured: shrunken log2 fold change
Answer with a number only.

Please review the entries below; each comes with its answer.
[ask] Tell me the measured shrunken log2 fold change of RRIRSRPPRLPRPRPRPLTTPRP , please.
[reply] -0.127

[ask] Next sequence: RRIRRRPPRLPRPRPRPQEVPRP
[reply] -0.00192

[ask] Next sequence: RRIRCRPPRLPRPRPRPHFLPRP
[reply] -0.657

[ask] Next sequence: RRIRSRPPRLPRPRPRPKLGPRP
[reply] 0.281

Continuing:
[ask] Tell me the measured shrunken log2 fold change of RRIRERPPRLPRPRPRPCVSPRP , please.
[reply] -0.0843

[ask] Next sequence: RRIRYRPPRLPRPRPRPTWAPRP
[reply] -0.0132

[ask] Next sequence: RRIRTRPPRLPRPRPRPNIGPRP
[reply] -0.0888

[ask] Next sequence: RRIRKRPPRLPRPRPRPCYRPRP
[reply] -0.0703

* * *

- Tested on: Escherichia coli TOP10
- assayDetails: shrunken log2 fold change of peptide-encoding DNA abundance (4.5 h post-induction vs induction); higher = less antimicrobial activity (less host growth inhibition)
- conditionSummary: time post-induction: 4.5 h; library: site-saturation at positions 5, 18, 19, 20
// shrunken log2 fold change lookup, one value per entry
Answer with a number only.

[ask] Tell me the measured shrunken log2 fold change of RRIRDRPPRLPRPRPRPYHWPRP , please.
[reply] 0.0299

[ask] Next sequence: RRIRDRPPRLPRPRPRPNQFPRP
[reply] -0.416

[ask] Next sequence: RRIRDRPPRLPRPRPRPYPCPRP
[reply] -0.112

[ask] Next sequence: RRIRPRPPRLPRPRPRPCYEPRP
[reply] -0.195

Continuing:
[ask] Tell me the measured shrunken log2 fold change of RRIRPRPPRLPRPRPRPKISPRP , please.
[reply] -0.0927

* * *

- Tested on: Escherichia coli TOP10
- assayDetails: shrunken log2 fold change of peptide-encoding DNA abundance (4.5 h post-induction vs induction); higher = less antimicrobial activity (less host growth inhibition)
- conditionSummary: time post-induction: 4.5 h; library: site-saturation at positions 5, 18, 19, 20
Assign met whenever shrunken log2 fold change does not fall below -0.002; assign not met whenever it does.

Solved cases (6 shown):
[ask] Given the entry RRIRNRPPRLPRPRPRPKMSPRP , answer whether its shrunken log2 fold change meets or surpasses -0.002.
[reply] not met

[ask] Next sequence: RRIRVRPPRLPRPRPRPIRIPRP
[reply] not met

[ask] Next sequence: RRIRPRPPRLPRPRPRPSIEPRP
[reply] not met

[ask] Next sequence: RRIRIRPPRLPRPRPRPKGDPRP
[reply] met

[ask] Next sequence: RRIRIRPPRLPRPRPRPPIEPRP
[reply] met

[ask] Next sequence: RRIRCRPPRLPRPRPRPTIPPRP
[reply] not met

Continuing:
[ask] Given the entry RRIRLRPPRLPRPRPRPTGSPRP , answer whether its shrunken log2 fold change meets or surpasses -0.002.
[reply] not met

[ask] Next sequence: RRIRTRPPRLPRPRPRPWNAPRP
[reply] not met

[ask] Next sequence: RRIRDRPPRLPRPRPRPANAPRP
[reply] not met

[ask] Next sequence: RRIRWRPPRLPRPRPRPRIVPRP
[reply] met

[ask] Next sequence: RRIRERPPRLPRPRPRPACDPRP
[reply] met

[ask] Next sequence: RRIRIRPPRLPRPRPRPRTAPRP
[reply] met

* * *

- Test system: Escherichia coli TOP10
- assayDetails: shrunken log2 fold change of peptide-encoding DNA abundance (4.5 h post-induction vs induction); higher = less antimicrobial activity (less host growth inhibition)
- conditionSummary: time post-induction: 4.5 h; library: site-saturation at positions 5, 18, 19, 20
Assign criterion met whenever shrunken log2 fold change does not fall below 0.06; assign criterion not met whenever it does.

[ask] Given the entry RRIRLRPPRLPRPRPRPTPDPRP , answer whether its shrunken log2 fold change meets or surpasses 0.06.
[reply] criterion met

[ask] Next sequence: RRIRERPPRLPRPRPRPCFRPRP
[reply] criterion not met

[ask] Next sequence: RRIRLRPPRLPRPRPRPSHIPRP
[reply] criterion not met

[ask] Next sequence: RRIRERPPRLPRPRPRPETYPRP
[reply] criterion not met

Continuing:
[ask] Given the entry RRIRFRPPRLPRPRPRPTMQPRP , answer whether its shrunken log2 fold change meets or surpasses 0.06.
[reply] criterion met

[ask] Next sequence: RRIRMRPPRLPRPRPRPSHSPRP
[reply] criterion not met

* * *

- Test system: Escherichia coli TOP10
- assayDetails: shrunken log2 fold change of peptide-encoding DNA abundance (4.5 h post-induction vs induction); higher = less antimicrobial activity (less host growth inhibition)
- conditionSummary: time post-induction: 4.5 h; library: site-saturation at positions 5, 18, 19, 20
parameterMeasured: shrunken log2 fold change
Answer with a number only.

Please review the entries below; each comes with its answer.
[ask] Tell me the measured shrunken log2 fold change of RRIRFRPPRLPRPRPRPMFQPRP , please.
[reply] -0.336

[ask] Next sequence: RRIRDRPPRLPRPRPRPNYGPRP
[reply] -0.0075

[ask] Next sequence: RRIRRRPPRLPRPRPRPLSFPRP
[reply] -0.0589

[ask] Next sequence: RRIRPRPPRLPRPRPRPPTQPRP
[reply] 0.12

[ask] Next sequence: RRIRKRPPRLPRPRPRPMGTPRP
[reply] 0.335

[ask] Next sequence: RRIRVRPPRLPRPRPRPCGRPRP
[reply] 0.168

Continuing:
[ask] Tell me the measured shrunken log2 fold change of RRIRTRPPRLPRPRPRPQWYPRP , please.
[reply] -0.524

[ask] Next sequence: RRIRHRPPRLPRPRPRPTNVPRP
[reply] -0.558

[ask] Next sequence: RRIRARPPRLPRPRPRPRKTPRP
[reply] 0.29

[ask] Next sequence: RRIRQRPPRLPRPRPRPVALPRP
[reply] -0.0318

[ask] Next sequence: RRIRFRPPRLPRPRPRPHHDPRP
[reply] -0.379

[ask] Next sequence: RRIRMRPPRLPRPRPRPNNYPRP
[reply] 0.0147

[ask] Next sequence: RRIRLRPPRLPRPRPRPGPTPRP
[reply] 0.109

* * *

- Test system: Escherichia coli TOP10;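 also: peptides expressed intracellularly from a pBAD plasmid library in pooled LB shake-flask culture, induced with 0.3% L-arabinose, DNA abundance read by NGS, three biological replicates, DESeq2 with apeglm shrinkage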
- assayDetails: shrunken log2 fold change of peptide-encoding DNA abundance (4.5 h post-induction vs induction); higher = less antimicrobial activity (less host growth inhibition)
- conditionSummary: time post-induction: 4.5 h; library: site-saturation at positions 5, 18, 19, 20
Assign Satisfied whenever shrunken log2 fold change does not fall below -0.09; assign Not satisfied whenever it does.

Solved cases (3 shown):
[ask] Given the entry RRIRIRPPRLPRPRPRPKFPPRP , answer whether its shrunken log2 fold change meets or surpasses -0.09.
[reply] Not satisfied

[ask] Next sequence: RRIRLRPPRLPRPRPRPRIRPRP
[reply] Satisfied

[ask] Next sequence: RRIRFRPPRLPRPRPRPWYWPRP
[reply] Not satisfied

Below: the item to evaluate.
[ask] Given the entry RRIRKRPPRLPRPRPRPPWRPRP , answer whether its shrunken log2 fold change meets or surpasses -0.09.
[reply] Satisfied
